- system: human CYP2D6 isozyme (Homo sapiens)
- Sequence (P10635 whole entry): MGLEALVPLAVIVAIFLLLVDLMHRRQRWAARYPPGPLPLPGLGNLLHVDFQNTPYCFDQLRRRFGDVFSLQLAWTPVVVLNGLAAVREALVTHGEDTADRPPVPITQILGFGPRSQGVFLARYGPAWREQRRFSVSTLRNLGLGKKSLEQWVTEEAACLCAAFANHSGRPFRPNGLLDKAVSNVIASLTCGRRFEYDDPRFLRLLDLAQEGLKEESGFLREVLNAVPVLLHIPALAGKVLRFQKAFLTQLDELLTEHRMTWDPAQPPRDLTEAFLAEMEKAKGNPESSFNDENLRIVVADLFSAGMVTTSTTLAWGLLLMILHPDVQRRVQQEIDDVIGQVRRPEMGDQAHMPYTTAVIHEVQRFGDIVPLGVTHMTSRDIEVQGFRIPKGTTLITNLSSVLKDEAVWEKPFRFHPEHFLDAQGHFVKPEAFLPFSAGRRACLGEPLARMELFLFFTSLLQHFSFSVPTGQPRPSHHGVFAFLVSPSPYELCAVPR
pIC50: −log10 of the molar value.
Would you mind telling me the reported pIC50 of each entry?

Sure, the documented pIC50 for Cc1cc(F)cc(-c2cncc(-c3nc4cc(F)ccc4[nH]3)c2N2CCC(N)CC2)c1 [R^1=H, R^5=H, R^6=5-F, R^7=H, reference compound] is > 5.30

Sure, the documented pIC50 for Cc1cc(F)cc(-c2cncc(-c3nc4cccc(F)c4[nH]3)c2N2CCC(N)CC2)c1 [R^1=H, R^5=H, R^6=H, R^7=7-F, reference compound] is > 5.30

Sure, the documented pIC50 for Cc1cc(F)cc(-c2cncc(-c3nc4cc(C#N)ccc4[nH]3)c2N2CCC(N)CC2)c1 [R^1=H, R^5=H, R^6=5-CN, R^7=H, reference compound] is < 5.30
